- TARGET_OF_ASSAY: IRAK4 (Homo sapiens, UniProt Q9NWZ3)
- Construct: endogenous in cells; host or cells: OCI-Ly10
- METHOD_NOTES: OCI-LY10 IRAK MSD assay DC50 (IRAK4 degradation)
- Type: cell-based
- DETAILS: OCI-Ly10 cells, incubated for 4 hr, concentration of compound required to degrade 50% of protein
- Procedure: A MSD assay is run to determine the concentration of compound required to degrade 50% of protein (DC50). • Compounds were reconstituted to 10 mM in stock solutions. The stock solutions were diluted to 5 mM and 45 μL of each dilution was transferred to a 384 pp-plate. […] (MSD, R92TC-2) • The MSD instrument was then read. The remaining activity was calculated following the formula below: • The DC50 was calculated by fitting the Curve using Xlfit (v5.3.1.3), equation 201: […]
READOUT_NAME: DC50

COMPOUND	RESULT
COc1cc2nn([C@H]3CC[C@H](CN4CCC(c5cccn6c(N7CCC(=O)NC7=O)cnc56)CC4)CC3)cc2cc1NC(=O)c1cc(F)cc(C(F)(F)F)c1 [I-82]	10 to 100 nM
C[C@H]1CN(C[C@H]2CC[C@H](n3cc(NC(=O)c4cnn5ccc(N6C[C@H]7C[C@@H]6CO7)nc45)c(C(F)F)n3)CC2)CC[C@@H]1OCC#Cc1cccn2c(N3CCC(=O)NC3=O)cnc12 [I-61]	< 10 nM
O=C1CCN(c2cnc3c(C4CCN(C[C@H]5C[C@H](n6cc7cc(NC(=O)c8cccc(C(F)(F)F)n8)ccc7n6)C5)CC4)cccn23)C(=O)N1 [I-39]	> 200 nM
COc1cc2nc([C@H]3CC[C@H](CN4CCN(c5ccn6c(N7CCC(=O)NC7=O)cnc6c5OC)CC4)CC3)sc2cc1NC(=O)c1cccc(C(F)(F)F)n1 [I-48]	10 to 100 nM
COc1cc2nn([C@H]3CC[C@H](CN4C[C@H]5C[C@@H]4CN5c4cccn5c(N6CCC(=O)NC6=O)cnc45)CC3)cc2cc1NC(=O)c1cccc(C(F)(F)F)n1 [I-55]	10 to 100 nM
O=C1CCN(c2cnc3cc(C#CCO[C@H]4CCN(C[C@H]5CC[C@H](n6cc(NC(=O)c7cnn8ccc(N9C[C@H]%10C[C@@H]9CO%10)nc78)c(C(F)F)n6)CC5)C[C@H]4F)ccn23)C(=O)N1 [I-71]	< 10 nM
COc1cc2nn([C@H]3CC[C@H](CN4C[C@H]5C[C@@H]4CN5c4ccn5c(N6CCC(=O)NC6=O)cnc5c4)CC3)cc2cc1NC(=O)c1cccc(C(F)(F)F)n1 [I-56]	10 to 100 nM
COc1cc2nn([C@H]3CC[C@H](CN4CCC(c5cccn6c(N7CCC(=O)NC7=O)cnc56)CC4)CC3)cc2cc1NC(=O)c1cccc(C(F)(F)F)n1 [I-26]	10 to 100 nM
O=C1CCN(c2cnc3cc(C#CCN4CCN(C[C@H]5CC[C@H](n6cc(NC(=O)c7cnn8ccc(N9C[C@H]%10C[C@@H]9CO%10)nc78)c(C(F)F)n6)CC5)CC4)ccn23)C(=O)N1 [I-75]	< 10 nM
CN(C[C@H]1CC[C@H](n2cc3cc(NC(=O)c4cccc(C(F)(F)F)n4)c(C(C)(C)O)cc3n2)CC1)C1CCN(c2ccn3c(N4CCC(=O)NC4=O)cnc3c2)CC1 [I-1]	< 10 nM

The measured DC50 associated with CN(C[C@H]1CC[C@H](n2cc3cc(NC(=O)c4cccc(C(F)(F)F)n4)ccc3n2)CC1)C1CCN(c2cccn3c(N4CCC(=O)NC4=O)cnc23)CC1 [I-27] reads > 200 nM

Per the records, this compound ( CC(C)(O)c1cc2nn([C@H]3CC[C@H](CN4CCC(c5cccn6c(N7CCC(=O)NC7=O)cnc56)CC4)CC3)cc2cc1NC(=O)c1cccc(C(F)(F)F)n1 [I-23] ) has DC50 equal to < 10 nM

COc1cc2nc([C@H]3CC[C@H](CN4CCC(c5cccn6c(N7CCC(=O)NC7=O)cnc56)CC4)CC3)sc2cc1NC(=O)c1cccc(C(F)(F)F)n1 [I-79] has a reported DC50 of < 10 nM

Noted for CC(C)Nc1cc(-c2ccc3cc(C#N)cnn23)ncc1C(=O)N[C@H]1CC[C@H](CN2CCC(c3ccn4c(N5CCC(=O)NC5=O)cnc4c3)CC2)CC1 [I-74] : its DC50 reads 10 to 100 nM

The value of DC50 measured for the compound COc1cc2nn([C@H]3C[C@H](CN4CCC(c5cccc6c(N7CCC(=O)NC7=O)cncc56)CC4)C3)cc2cc1NC(=O)c1cccc(C(F)(F)F)n1 [I-40] turned out to be 10 to 100 nM

// sample O=C1CCN(c2cnc3c(C#CCOC4CCN(C[C@H]5CC[C@H](n6cc(NC(=O)c7cnn8ccc(N9C[C@H]%10C[C@@H]9CO%10)nc78)c(C(F)F)n6)CC5)CC4)cccn23)C(=O)N1 [I-24] , its DC50 was < 10 nM

Query COc1cc2nn([C@H]3CC[C@H](CN4C[C@@H]5C[C@H]4CN5c4cccn5c(N6CCC(=O)NC6=O)cnc45)CC3)cc2cc1NC(=O)c1cccc(C(F)(F)F)n1 [I-54] yields DC50 of 10 to 100 nM

Summary for this compound, COc1cc2nn([C@H]3CC[C@H](CN(C)C4CCN(c5cccn6c(N7CCC(=O)NC7=O)cnc56)CC4)CC3)cc2cc1NC(=O)c1cncc(Cl)c1 [I-88] : DC50 is > 200 nM

The recorded DC50 for C[C@H]1CN(C[C@H]2CC[C@H](n3cc(NC(=O)c4cnn5ccc(N6C[C@H]7C[C@@H]6CO7)nc45)c(C(F)F)n3)CC2)CC[C@@H]1OCC#Cc1ccn2c(N3CCC(=O)NC3=O)cnc2c1 [I-63] is < 10 nM

# compound O=C1CCN(c2cnc3cc(C4CCN(C[C@H]5C[C@H](n6cc7cc(NC(=O)c8cccc(C(F)(F)F)n8)ccc7n6)C5)CC4)ccn23)C(=O)N1 [I-38] ; its DC50 = 10 to 100 nM

Sample COc1cc2nn([C@H]3CC[C@H](CN4CCC(c5ccn6c(N7CCC(=O)NC7=O)cnc6c5)CC4)CC3)cc2cc1NC(=O)c1cccc(C(F)(F)F)n1 [I-36] ; DC50 observed: < 10 nM

----------
- TARGET_OF_ASSAY: IRAK4 (Homo sapiens)
- Construct: endogenous in cells; host or cells: OCI-Ly10
- Sequence (Q9NWZ3 1-460): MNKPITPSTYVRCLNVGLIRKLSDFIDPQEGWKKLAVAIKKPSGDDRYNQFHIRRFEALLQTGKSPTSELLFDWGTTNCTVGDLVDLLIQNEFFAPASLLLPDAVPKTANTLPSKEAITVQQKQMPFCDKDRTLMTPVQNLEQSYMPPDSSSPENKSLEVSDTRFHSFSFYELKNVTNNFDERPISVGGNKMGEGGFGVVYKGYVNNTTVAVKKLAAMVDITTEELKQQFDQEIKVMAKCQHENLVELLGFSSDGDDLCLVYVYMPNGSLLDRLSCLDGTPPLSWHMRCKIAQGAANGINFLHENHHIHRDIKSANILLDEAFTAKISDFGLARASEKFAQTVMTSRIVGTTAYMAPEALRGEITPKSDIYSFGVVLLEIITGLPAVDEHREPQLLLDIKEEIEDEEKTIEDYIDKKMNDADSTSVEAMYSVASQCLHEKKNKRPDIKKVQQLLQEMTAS
- METHOD_NOTES: OCI-LY10 IRAK MSD assay DC50 (IRAK4 degradation)
- Type: cell-based
- DETAILS: OCI-Ly10 cells, incubated for 4 hr, concentration of compound required to degrade 50% of protein
READOUT_NAME: DC50

Solved cases (3 shown):
>>> print(df.to_string())
                              line_notation        result
0  O=C1CCN(c2cnc3cc(C4CCN(C[C@H]5CC[C@H](n6cc7cc(NC(=O)c8cccc(C(F)(F)F)n8)ncc7n6)CC5)CC4)ccn23)C(=O)N1      > 200 nM
1  COc1cc2nc([C@H]3CC[C@H](CN(C)C4CCN(c5cccn6c(N7CCC(=O)NC7=O)cnc56)CC4)CC3)sc2cc1NC(=O)c1cccc(C(F)(F)F)n1  10 to 100 nM
2  COc1cc2nn([C@H]3CC[C@H](CN4C5CC4CN(c4cccn6c(N7CCC(=O)NC7=O)cnc46)C5)CC3)cc2cc1NC(=O)c1cccc(C(F)(F)F)n1  10 to 100 nM

Lab entry: IRAK4 (Homo sapiens) assay, compound `COc1cc2nc([C@H]3CC[C@H](CN4CCN(c5ccn6c(N7CCC(=O)NC7=O)cnc6c5C)CC4)CC3)sc2cc1NC(=O)c1cccc(C(F)(F)F)n1` , DC50 = 10 to 100 nM

Entry `COc1cc2nc([C@H]3CC[C@H](CN(C)C4CCN(c5ccn6c(N7CCC(=O)NC7=O)cnc6c5)CC4)CC3)sc2cc1NC(=O)c1cccc(C(F)(F)F)n1` under IRAK4 (Homo sapiens) had DC50 of 10 to 100 nM

Item `CC(C)(O)c1cc2nn([C@H]3CC[C@H](CC4CCN(c5ccn6c(N7CCC(=O)NC7=O)cnc6c5)CC4)CC3)cc2cc1NC(=O)c1cccc(C(F)(F)F)n1` ; assay system IRAK4 (Homo sapiens); DC50 reported as < 10 nM
